# study system: T1, PKC-βI (purified isoform) (Homo sapiens (Human), UniProt P05771 2-671)
# T1 construct: also called PKC-beta I
# T1 sequence (P05771 2-671 limits assumed): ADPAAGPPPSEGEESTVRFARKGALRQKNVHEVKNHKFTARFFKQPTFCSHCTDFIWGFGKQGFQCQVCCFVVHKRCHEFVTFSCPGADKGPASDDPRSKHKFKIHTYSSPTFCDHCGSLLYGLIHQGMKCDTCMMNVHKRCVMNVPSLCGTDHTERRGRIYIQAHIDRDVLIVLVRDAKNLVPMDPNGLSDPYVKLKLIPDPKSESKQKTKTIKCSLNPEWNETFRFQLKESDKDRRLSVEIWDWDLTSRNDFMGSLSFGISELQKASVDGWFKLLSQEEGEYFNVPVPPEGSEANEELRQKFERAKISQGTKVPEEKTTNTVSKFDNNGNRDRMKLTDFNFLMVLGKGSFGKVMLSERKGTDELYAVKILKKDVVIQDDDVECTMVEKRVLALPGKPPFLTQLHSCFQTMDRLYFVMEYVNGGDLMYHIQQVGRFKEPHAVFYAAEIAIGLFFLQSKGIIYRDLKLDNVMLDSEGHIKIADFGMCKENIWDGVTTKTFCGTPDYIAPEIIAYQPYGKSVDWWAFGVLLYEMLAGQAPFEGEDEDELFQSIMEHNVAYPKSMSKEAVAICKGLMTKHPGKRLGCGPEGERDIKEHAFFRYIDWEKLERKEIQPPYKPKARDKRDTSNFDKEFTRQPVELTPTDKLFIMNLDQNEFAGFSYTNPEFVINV
# method notes: competitive ELISA on purified PKC-βI vs anti-PKC-βI Ab; PRE 200 µM
# Procedure: Greiner 96 well ELISA plates were coated with the appropriate PKC isoform diluted in PBSN (PBS with Calcium/Magnesium+0.05% Sodium azide w/w). 50 μL/well at 250 ng/mL was used. Control wells contained PBSN only. Plates were incubated overnight at 4° C. The plates were washed 3 times with 200 μL of dH₂O per well, then 100 μL of blocking solution was added per well and the plate incubated for 1 h at 37° C. […]
Reported values of binding capacity (%) for individual entries
Give the number first and the unit second.

(Q) Given the binder Ac-AKGIQEVKGGDAQNLIGISI-NH2 (Synthetic peptide; also called peptide PRE 3) [PRE 3] , what is its reported binding capacity (%)?
(A) 23%

---
(Q) Given the binder Ac-KDANQLIGISI-NH2 (Synthetic peptide; also called peptide PRE 6) [PRE 6] , what is its reported binding capacity (%)?
(A) 6.14%

(Q) Given the binder RRKKGGKDFVVKR (Synthetic peptide, solid phase synthesis; termini given free; also called peptide PRE 1) [PRE 1] , what is its reported binding capacity (%)?
(A) 13.4%

(Q) Given the binder Ac-KDAQNLI-NH2 (Synthetic peptide; also called peptide PRE 12; Ac-KDAQNLI-NH2) [PRE 12] , what is its reported binding capacity (%)?
(A) 0%
